- PROTOCOL: Inhibition of soybean 15-lipoxygenase
- Set-up: species or system Glycine max
pIC50: −log10 of the molar value. Counter-ions that a name gives are not always drawn.
Decide using pIC50: a value greater than or equal to 5 is Y, a smaller one is N.

INSERT INTO measurements (molecule, group) VALUES
  ('CC1=CC[C@H]2C(C)(C)CCC[C@]2(C)[C@H]1C[C@@H](O)[C@H](C)CCC/C(C)=C/Cc1cc(O)ccc1O [HYDROHALISULFATE 1]', 'Y'),
  ('CC1=CC[C@H]2C(C)(C)CCC[C@]2(C)[C@H]1C[C@@H](OS(=O)(=O)O)[C@H](C)CCC/C(C)=C/Cc1cc(O)ccc1O [HALISULFATE 1]', 'Y'),
  ('CO[C@H]1C[C@]2(O)C(=O)C=C3O[C@@]4(C)CC[C@H]5C(C)(C)CCC[C@]5(C)[C@H]4C=C3[C@@H]2O1', 'N'),
  ('C[C@@]12CCC(=O)c3coc(c31)C(=O)c1cc3c(O)ccc(OS(=O)(=O)O)c3cc12 [HALENAQUINOL SULFATE SODIUM]', 'N'),
  ('COc1cc2c(cc1O)O[C@@]1(C)CC[C@H]3C(C)(C)CCC[C@]3(C)[C@H]1[C@@H]2OC', 'N'),
  ('CC1=CCCC(C)(C)C1CC/C(C)=C/CCC(CO)CCCc1ccoc1 (stereo not given)', 'N'),
  ('CC(Cc1ccc(O)c(O)c1)C(C)Cc1ccc(O)c(O)c1 (stereo not given) [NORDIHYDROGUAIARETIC ACID]', 'Y'),
  ('CC1(C)CCC[C@]2(C)[C@H]3C=C4C(=CC(=O)C(O)=C4Cl)O[C@@]3(C)CC[C@@H]12', 'Y'),
  ('COc1ccc(C[C@@H](C)[C@@H](C)Cc2ccc(OC)c(O)c2)cc1O [DIMETHYLNORDIHYDROGUARIERATE ACID]', 'N'),
  ('CC(C)=CCC[C@@]1(C)CCC[C@]2(C)[C@@H](Cc3cc(C(=O)O)ccc3O)C(C)=CC[C@@H]12', 'Y'),
  ('CC1=C(CC/C(C)=C/CC/C(C)=C/Cc2cc(O)ccc2O)C(C)(C)CCC1', 'Y');
